# METHOD SUMMARY: Pharmacokinetic study of 15 LJF components in plasma of RSV-infected mice after oral LJF extract (UHPLC-QQQ MS)
# Format: in vivo
# EXPERIMENTAL PARAMETERS: mouse, in vivo; RSV mice plasma, oral LJF extract 12.0 g/kg, n = 6; read-out: Tmax
Tmax reference
Write the answer as a number in min, unit excluded.

>>> endpoint_result("C[C@@H]1O[C@@H](OC[C@H]2O[C@@H](Oc3c(-c4ccc(O)c(O)c4)oc4cc(O)cc(O)c4c3=O)[C@H](O)[C@@H](O)[C@@H]2O)[C@H](O)[C@H](O)[C@H]1O")
30
>>> endpoint_result("O=c1cc(-c2ccc(O)c(O)c2)oc2cc(O[C@@H]3O[C@H](CO)[C@@H](O)[C@H](O)[C@H]3O)cc(O)c12 [Luteoloside]")
30

Now consider a different compound.
The measured Tmax associated with O=c1c(O[C@@H]2O[C@H](CO)[C@@H](O)[C@H](O)[C@H]2O)c(-c2ccc(O)c(O)c2)oc2cc(O)cc(O)c12 reads 30
